Tested on: D-Serine Levels in the cerebellum
Experiment: In vivo elevation of D-serine levels in the cerebellum (LC/MS/MS)
Conditions: Mus musculus, ip; mice, 50 mg/kg i.p., 6 h; read-out: Fold increase in D-serine in the cerebellum over vehicle
Recorded response vs control in vivo at 50 mg/kg, one value per entry.
Outcome Measure: response vs control in vivo at 50 mg/kg

Structure: O=C(O)c1cc2sc(F)cc2[nH]1
Reading: 150 to 200%
--
Structure: O=C(O)c1[nH]c2sccc2c1Br
Reading: < 150%
--
Structure: O=C(O)c1[nH]c2ccoc2c1F
Reading: > 200%
--
Structure: O=C(O)c1[nH]c2ccoc2c1Br
Reading: < 150%
--
Structure: O=C(O)c1cc2sc(Br)cc2[nH]1
Reading: < 150%
--
Structure: O=C(O)c1cc2cc(F)sc2[nH]1
Reading: 150 to 200%

This collection of values is drawn from patent US7884124B2.
